Just for reference, ChEMBL document CHEMBL1201862 is where these values come from.

Consider the following compounds; for each one, report its IC50.
molecular target: Neuropeptides B/W receptor type 1 (Homo sapiens, UniProt P48145); assay: human NPBW1 receptor blockade, IC50 – cell-based, fluorescence, dose response, set 6, late-stage follow-up (AID 588583); assay type: functional
Sequence (P48145 whole entry): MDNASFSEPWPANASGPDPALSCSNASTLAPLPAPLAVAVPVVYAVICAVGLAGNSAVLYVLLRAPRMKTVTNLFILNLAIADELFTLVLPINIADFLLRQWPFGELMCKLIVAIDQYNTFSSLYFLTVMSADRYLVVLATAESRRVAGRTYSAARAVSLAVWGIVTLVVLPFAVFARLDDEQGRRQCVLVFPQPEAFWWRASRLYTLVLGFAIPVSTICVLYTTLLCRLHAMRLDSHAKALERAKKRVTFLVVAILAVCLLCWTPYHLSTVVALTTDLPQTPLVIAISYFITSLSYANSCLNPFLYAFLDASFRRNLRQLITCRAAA
Active and inactive are the calls of the source.

[
  {
    "COMPOUND": "COc1ccc(C(C#N)c2c(Cl)cnn(Cc3cccc4ccccc34)c2=O)c(F)c1 (centres undefined)",
    "IC50": "198 nM (active)"
  },
  {
    "COMPOUND": "O=c1c(-c2ccc(F)c(F)c2)c(Br)cnn1Cc1cccc2ccccc12",
    "IC50": "686 nM (active)"
  },
  {
    "COMPOUND": "CC(C)(C#N)c1c(Cl)cnn(Cc2cccc3ccccc23)c1=O",
    "IC50": "2500 nM (active)"
  }
]

compound `COc1ccc(Oc2c(Cl)cnn(Cc3ccccc3[N+](=O)[O-])c2=O)cc1` , IC50 observed: 1410 nM (active)

* * *

biological target: Protein skinhead-1 (Caenorhabditis elegans, UniProt P34707); format: functional
Sequence (P34707 whole entry): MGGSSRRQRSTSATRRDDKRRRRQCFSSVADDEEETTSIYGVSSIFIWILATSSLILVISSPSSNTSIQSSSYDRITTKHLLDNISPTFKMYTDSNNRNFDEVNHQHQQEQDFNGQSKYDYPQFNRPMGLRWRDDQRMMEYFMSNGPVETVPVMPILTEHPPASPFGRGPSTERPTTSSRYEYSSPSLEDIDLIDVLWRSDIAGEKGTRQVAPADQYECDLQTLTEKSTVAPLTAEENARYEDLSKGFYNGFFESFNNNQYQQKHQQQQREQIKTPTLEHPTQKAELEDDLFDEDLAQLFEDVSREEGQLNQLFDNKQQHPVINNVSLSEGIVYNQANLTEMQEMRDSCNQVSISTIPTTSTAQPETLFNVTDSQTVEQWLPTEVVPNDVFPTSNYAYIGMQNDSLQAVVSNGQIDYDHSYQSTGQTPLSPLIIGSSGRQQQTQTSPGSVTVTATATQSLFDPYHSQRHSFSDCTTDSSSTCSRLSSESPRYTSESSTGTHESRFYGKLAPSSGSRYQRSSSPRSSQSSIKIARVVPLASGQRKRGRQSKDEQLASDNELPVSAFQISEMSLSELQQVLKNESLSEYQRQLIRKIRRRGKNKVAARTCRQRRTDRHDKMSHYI
Active and inactive are the calls of the source.
Could you please pick one outcome from this set? active, inactive

[
  {
    "COMPOUND": "Cc1ccccc1NC(=O)Cc1nc(COC(=O)c2cccc(O)c2)cs1",
    "ASSIGNED_CLASS": "inactive"
  },
  {
    "COMPOUND": "C/C(=N/OCc1ccc(Br)cc1)c1ccccn1",
    "ASSIGNED_CLASS": "active"
  },
  {
    "COMPOUND": "O=[N+]([O-])c1ccc(OC/C=C2\\Oc3ccc([N+](=O)[O-])cc3C2N2CCOCC2)cc1 (stereo unspecified)",
    "ASSIGNED_CLASS": "inactive"
  },
  {
    "COMPOUND": "Cc1ccc(N/C=C/C(=O)c2cccs2)cc1",
    "ASSIGNED_CLASS": "active"
  },
  {
    "COMPOUND": "Clc1cccc(CSc2ncn(-c3ccccc3)n2)c1",
    "ASSIGNED_CLASS": "active"
  }
]

Moving on to the next compound.
Prompt: Entry `O=C(Nc1ccc2c(c1)Cc1ccccc1-2)c1ccco1` : call = ?
Completion: inactive

* * *

assay: Luminescence Cell-Based Dose Response HTS to Identify Activators of Luciferase Translation or Activity in H4 […] Cells. [Related pubchem assays: 1829 (Project Summary), 1814 (Primary HTS)]; assay type: functional
The source made the active and inactive calls.
OBSERVATION_TYPE: EC50

Illustrative cases are given below, each with its answer.
[
  {
    "COMPOUND_STRUCTURE_STRING": "CCn1c(O)cc(=O)nc1SCC(=O)Nc1ccc(C)cc1",
    "EC50": "> 120 µM (not active)"
  },
  {
    "COMPOUND_STRUCTURE_STRING": "Cc1sc2ncnc(N3CCC(C(=O)Nc4nc5ccc(Cl)cc5s4)CC3)c2c1C",
    "EC50": "19.2 µM (active)"
  },
  {
    "COMPOUND_STRUCTURE_STRING": "CCCCc1nc2cc(C(=O)N(C)C3CCOCC3)ccc2o1",
    "EC50": "15 µM (active)"
  }
]

// next item, EC50 requested
Form: compound = `CCOC(=O)c1cnn(-c2ncnc3c2cnn3C)c1N` ; EC50 = 10.9 µM (active)

* * *

Answer each item with its documented EC50.
molecular target: Protein RecA (Mycobacterium tuberculosis, UniProt P9WHJ3); assay: Fluorescence Cell-Free Homogeneous Dose Retest to Identify Inhibitors of RecA-Intein Splicing Activity. [Related pubchem assays (depositor defined):AID2097, AID2223, AID489010, AID492950]; type: functional
Calls of active or inactive are those of the source.

[
  {
    "COMPOUND_STRUCTURE_STRING": "COc1cc2c(cc1OC)-c1c(OC)c(OC)cc3c1[C@H](C2)N(C)CC3",
    "EC50": "4.91 µM (active)"
  },
  {
    "COMPOUND_STRUCTURE_STRING": "O=C(NCc1cccnc1)/C(=C\\c1ccc(-c2ccc(Br)cc2)o1)S(=O)(=O)c1ccccc1",
    "EC50": "20.2 µM (active)"
  }
]

In the following, a different compound is considered.
Value of measured EC50 for the entry `CCN(C(=O)c1ccc2c(Cl)c3c(nc2c1)CCC3)c1ccc(C)c(C)c1` : 2.59 µM (active)

* * *

target: Genome polyprotein (dengue virus type 2); assay: flavivirus cap methylation enzyme inhibition – biochemical, confirmation dose response, primary screen (AID 588689); format: functional
Activity calls are given as the source filed them.
So I've got a bunch of compounds here, and I need their IC50 values.

Below: 4 compounds and their reported IC50.
[
  {
    "COMPOUND": "O=C1NC(=O)C(=Cc2ccc(Sc3ccccc3)o2)C(=O)N1",
    "OBSERVATION_TYPE": "IC50",
    "VALUE_MEASURED": "> 100 µM (active)"
  },
  {
    "COMPOUND": "CCn1nc([N+](=O)[O-])c(C(C#N)c2nc3cc(C(F)(F)F)ccc3s2)c(Cl)c1=O (stereo not given)",
    "OBSERVATION_TYPE": "IC50",
    "VALUE_MEASURED": "57.5 µM (active)"
  },
  {
    "COMPOUND": "CCC(=O)OC1(C)C(=O)C=C2C=C(C3CC3)OC=C2C1=O (stereo not given)",
    "OBSERVATION_TYPE": "IC50",
    "VALUE_MEASURED": "> 100 µM (active)"
  },
  {
    "COMPOUND": "O=C1/C(=C/c2cccs2)SC(=S)N1NS(=O)(=O)c1ccccc1",
    "OBSERVATION_TYPE": "IC50",
    "VALUE_MEASURED": "57.4 µM (active)"
  }
]

Attention now shifts to the item below.
The compound identified as `Cc1ccc(N2C(=O)/C(=C\Nc3ccccc3-c3nnc(S)nc3O)c3ccccc3C2=O)cc1C` registered its IC50 at 31.5 µM (active)

* * *

target: UniProt:P43351; type: functional, biochemical
Sequence (P43351 whole entry): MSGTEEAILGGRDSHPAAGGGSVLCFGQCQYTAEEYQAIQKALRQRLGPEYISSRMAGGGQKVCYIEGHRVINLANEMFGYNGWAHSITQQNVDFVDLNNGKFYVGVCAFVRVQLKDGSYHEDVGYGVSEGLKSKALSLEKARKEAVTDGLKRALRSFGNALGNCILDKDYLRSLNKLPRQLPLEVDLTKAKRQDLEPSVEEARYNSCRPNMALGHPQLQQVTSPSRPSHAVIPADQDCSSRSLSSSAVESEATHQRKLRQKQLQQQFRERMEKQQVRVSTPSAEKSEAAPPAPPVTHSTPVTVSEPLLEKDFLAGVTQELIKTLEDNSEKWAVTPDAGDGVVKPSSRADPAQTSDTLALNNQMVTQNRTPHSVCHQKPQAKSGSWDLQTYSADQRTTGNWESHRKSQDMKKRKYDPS
Activity calls are given as the source filed them.
Would you kindly list AC50 for each of these compounds?

[
  {
    "COMPOUND_STRUCTURE_STRING": "Cc1cc(C)c2nc(NCCCNC(=S)NCCCN(C)C)c(C#N)cc2c1",
    "TEST_SYSTEM": "UniProt:P43351",
    "VALUE_MEASURED": "7.63 µM (active)"
  },
  {
    "COMPOUND_STRUCTURE_STRING": "OCCCNc1c2ccccc2nc2ccccc12",
    "TEST_SYSTEM": "UniProt:P43351",
    "VALUE_MEASURED": "3.08 µM (active)"
  },
  {
    "COMPOUND_STRUCTURE_STRING": "COc1cc(-c2cnc3c(NC=O)cc(-c4ccc(N5CCN(C)CC5)cc4)cn23)cc(OC)c1OC",
    "TEST_SYSTEM": "UniProt:P43351",
    "VALUE_MEASURED": "4.54 µM (active)"
  },
  {
    "COMPOUND_STRUCTURE_STRING": "COc1ccc2nc(C)cc(Nc3ccc(N4CCN(C)CC4)cc3)c2c1",
    "TEST_SYSTEM": "UniProt:P43351",
    "VALUE_MEASURED": "1.27 µM (active)"
  },
  {
    "COMPOUND_STRUCTURE_STRING": "CN1CCN(CCCCOc2ccccc2C=O)CC1",
    "TEST_SYSTEM": "UniProt:P43351",
    "VALUE_MEASURED": "15.8 µM (active)"
  },
  {
    "COMPOUND_STRUCTURE_STRING": "CCN(CC)CCn1c2ccccc2c2nnc(S)nc21",
    "TEST_SYSTEM": "UniProt:P43351",
    "VALUE_MEASURED": "5.41 µM (active)"
  },
  {
    "COMPOUND_STRUCTURE_STRING": "COc1cc2c(cc1OC)-c1c(OC)c(OC)cc3c1[C@H](C2)N(C)CC3",
    "TEST_SYSTEM": "UniProt:P43351",
    "VALUE_MEASURED": "2.86 µM (active)"
  }
]

--- query ---
// AC50 lookup, compound = `CN(C)CC/C=C1\c2ccc(F)cc2Sc2cc(F)c(Cl)cc21` , result: 9.75 µM (active)

* * *

target: Cytochrome P450 2C9 (Homo sapiens)
Sequence (P11712 whole entry): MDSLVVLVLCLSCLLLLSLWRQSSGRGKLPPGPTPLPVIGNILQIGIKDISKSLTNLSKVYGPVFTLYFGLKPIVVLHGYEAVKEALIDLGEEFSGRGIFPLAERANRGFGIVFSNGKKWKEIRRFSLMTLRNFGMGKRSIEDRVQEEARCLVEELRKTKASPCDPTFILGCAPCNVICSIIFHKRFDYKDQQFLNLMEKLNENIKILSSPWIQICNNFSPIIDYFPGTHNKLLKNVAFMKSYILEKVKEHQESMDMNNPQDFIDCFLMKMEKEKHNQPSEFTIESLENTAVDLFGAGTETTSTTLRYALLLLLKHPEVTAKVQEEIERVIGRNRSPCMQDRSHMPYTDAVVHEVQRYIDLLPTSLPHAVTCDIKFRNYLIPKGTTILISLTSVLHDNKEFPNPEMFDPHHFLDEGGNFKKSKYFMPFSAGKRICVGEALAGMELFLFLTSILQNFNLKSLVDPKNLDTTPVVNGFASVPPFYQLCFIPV
OBSERVATION_TYPE: AC50

[
  {
    "COMPOUND": "Cc1nc2ccccn2c1C(=O)C1=C(O)C(=O)N(CCN2CCOCC2)C1c1cccnc1 (centres undefined)",
    "TEST_SYSTEM": "Cytochrome P450 2C9 (Homo sapiens)",
    "AC50": "17.8 µM (inconclusive)"
  },
  {
    "COMPOUND": "Cc1c(N2C(=O)/C(=C3/C(=O)N(C)c4ccccc43)SC2=S)c(=O)n(-c2ccccc2)n1C",
    "TEST_SYSTEM": "Cytochrome P450 2C9 (Homo sapiens)",
    "AC50": "12.6 µM (inconclusive)"
  },
  {
    "COMPOUND": "CC(=O)Nc1ccc2[nH]c(C3CCCCC3)nc2c1",
    "TEST_SYSTEM": "Cytochrome P450 2C9 (Homo sapiens)",
    "AC50": "17.8 µM (inconclusive)"
  }
]

Here is another compound to look at.
Known value: Cytochrome P450 2C9 (Homo sapiens) AC50 of the compound `Fc1ccc(NCc2ccccc2F)cc1Cl` equals 31.6 µM (inconclusive)
